Where these numbers come from: patent US11472766B2

Test: Lipid nanoparticle size by dynamic light scattering (Malvern Zetasizer Nano ZS)
Assay type: physicochemical
Settings: LNP: cationic lipid/DSPC/cholesterol/PEG-lipid 50:10:38.5:1.5, hEPO mRNA; Table 3
Quick reference for size nm among some compounds

| compound | size nm |
| --- | --- |
| CCCCCCCCC(CCCCCC)COC(=O)CCCCCN(CCCCCC(=O)OCC(CCCCCC)CCCCCCCC)CCN(CCO)C1CCC(O)CC1 (stereo not shown) | 75.26 nm |
| CCCCCCC(CCCCCC)COC(=O)CCCCCN(CCCCCC(=O)OCC(CCCCCC)CCCCCC)CCN(CCO)C1CCC1 [Compound 48] | 72.52 nm |
| CCCCCCCCC(CCCCCC)COC(=O)CCCCCN(CCCCCC(=O)OCC(CCCCCC)CCCCCCCC)C(=O)CCN(CCO)C1CCC1 (stereo not shown) | 75.86 nm |
| CCCCC/C=C\CCCC(=O)C(CC/C=C\CCCCC)C(CCC/C=C\CCCCC)OC(=O)CCCCCN(CCO)CCCCCC(=O)OCCC/C=C/CCCCC (stereo not shown) | 58.6 nm |
| CCCCCCCCC(CCCCCCCC)COC(=O)COCCOCCN(CCOCCOCC(=O)OCC(CCCCCCCC)CCCCCCCC)CCN(CCO)C1CCC1 | 67.57 nm |
| CCCCCCCCC(CCCCCCCC)CNC(=O)CCCCCN(CCCCCC(=O)OCC(CCCCCCCC)CCCCCCCC)CCN(CCO)C1CCCCC1 | 63.52 nm |
| CCCCCCCCC(CCCCCCCC)COC(=O)CCCCCN(CCCCCC(=O)OCC(CCCCCCCC)CCCCCCCC)CCN(CCCC)C1CCC(O)CC1 (stereo not shown) | 64.75 nm |

###

Assay: Lipid nanoparticle size by dynamic light scattering (Malvern Zetasizer Nano ZS)
Assay type: physicochemical
Settings: LNP: cationic lipid/DSPC/cholesterol/PEG-lipid 50:10:38.5:1.5, hEPO mRNA; Table 3
With a cut-off of 80 nm, any size nm strictly below it is called YES; any size nm meeting it or above is called NO.

| compound | qualitative_label |
| --- | --- |
| CCCCCCCCCCCOC(=O)CCCCCN(CCCCCC(=O)OCC(CCCCCCCC)CCCCCCCC)CCN(CCO)C1CC1 | YES |
| CCCCCCCCC(CCCCCC)COC(=O)CCCCCN(CCCCCC(=O)OCC(CCCCCC)CCCCCCCC)CCN(C)C1CCC(O)CC1 (centres unmarked) | NO |
| CCCCCCCCC(CCCCCC)CC(=O)COCCCCN(CCCCCOC(=O)CC(CCCCCC)CCCCCCCC)CCN(CCO)C1CCCCCC1 (centres unmarked) | YES |
| CCCCCC/C=C\COC(=O)CCCCCN(CCCC(=O)OC(CCCCCCC)CCCCCCC)CCN(CCO)C1CCC1 | NO |
| CCCCCCC(CCCCCC)CNC(=O)CCCCCN(CCCCCC(=O)OCC(CCCCCC)CCCCCC)CCN(CCO)C1CCCC1 | NO |
| CCCCCCCCC(CCCCCC)COC(=O)CCCCCN(CCCCCC(=O)OCC(CCCCCC)CCCCCCCC)CCN(CCCCO)C1CCC1 (centres unmarked) | NO |
| CCCCCCCCCCCOC(=O)CCCCCN(CCCCCC(=O)OCC(CCCCCCCC)CCCCCCCC)CCN(CCO)C1CCC1 | YES |
| CCCCCCCCC(CCCCCC)CNC(=O)CCCCCN(CCCCCC(=O)OCC(CCCCCC)CCCCCCCC)CCN(CCC)C1CCC(O)CC1 (centres unmarked) | NO |
| CCCCCCCCNC(=O)CCCCCN(CCCCCC(=O)NCCCCCCCC)CCN(CCO)C1CCCCC1 | NO |
| CCCCCCCCC(CCCCCC)COC(=O)CCCCCC(CCCCCC(=O)OCC(CCCCCC)CCCCCCCC)CN(CCO)C1CCC1 (centres unmarked) | YES |
| CCCCCCC(CCCCCC)CNC(=O)CCCCCN(CCCCCC(=O)OCC(CCCCCC)CCCCCC)CCN(CCO)C1CCCCCC1 | YES |
| CCCCCCCCC(O)CN(CCN(CCCCCC(=O)OCC(CCCCCC)CCCCCCCC)CCCCCC(=O)OCC(CCCCCC)CCCCCCCC)C1CCC1 (centres unmarked) | YES |
| CCCCCCCCC(CCCCCC)COC(=O)CCCCCN(CCCCCC(=O)OCC(CCCCCC)CCCCCCCC)CCN(CCCC)C1CCC(O)CC1 (centres unmarked) | YES |
| CCCCCCCCC(CCCCCC)COC(=O)CCCCCN(CCCCCC(=O)OCC(CCCCCC)CCCCCCCC)CCN(CCO)C1CCC(F)(F)CC1 (centres unmarked) | YES |

###

Test: Lipid nanoparticle size by dynamic light scattering (Malvern Zetasizer Nano ZS)
Assay type: physicochemical
Conditions: LNP: cationic lipid/DSPC/cholesterol/PEG-lipid 50:10:38.5:1.5, hEPO mRNA; Table 3
Procedure: Briefly, a cationic lipid provided herein, DSPC, cholesterol, and PEG-lipid were solubilized in ethanol at a molar ratio of 50:10:38.5:1.5, and mRNA were diluted in 10 to 50 mM citrate buffer, pH=4. […] Lipid nanoparticle size were determined by dynamic light scattering using a Malvern Zetasizer Nano ZS (Malvern UK) using a 173° backscatter detection mode. […]
Listed next: entries and their corresponding polydispersity.

| compound | polydispersity |
| --- | --- |
| CCCCCCCCC(CCCCCC)CC(=O)NCCCCCN(CCCCCNC(=O)CC(CCCCCC)CCCCCCCC)CCN(CCO)C1CC1 (stereo not drawn) [Compound 113] | 0.04 |
| CCCCCCCCC(CCCCCC)COC(=O)CCCCCN(CCCCCC(=O)OCC(CCCCCC)CCCCCCCC)CCN(CCCCCCO)C1CCC1 (stereo not drawn) [Compound 30] | 0.071 |
| CCCCCCCCC(CCCCCC)COC(=O)CCCCCN(CCCCCC(=O)OCC(CCCCCC)CCCCCCCC)CCN(CC)C1CCC(O)CC1 (stereo not drawn) [Compound 55] | 0.109 |

###

Assay: Encapsulation efficiency of lipid nanoparticles (Quant-it Ribogreen RNA quantification assay)
Type: physicochemical
Conditions: LNP encapsulating hEPO mRNA; Table 3

| compound | Encapsulation Efficiency [%] |
| --- | --- |
| CCCCCCCCC(CCCCCCCC)COC(=O)CCCCCN(CCCCCC(=O)OCC(CCCCCCCC)CCCCCCCC)CCN(CCO)C1CCCOC1 (stereo not drawn) [Compound 65] | 93.0 |
| CCCCCCCCC(CCCCCC)CNC(=O)CCCCCN(CCCCCC(=O)NCC(CCCCCC)CCCCCCCC)CCN(CCO)C1CC(O)C1 (stereo not drawn) [Compound 134] | 87.9 |
| CCCCCCCCCCCCC(CCCCCC)COC(=O)CCCN(CCCC(=O)OCC(CCCCCC)CCCCCCCCCCCC)CCN(CCO)C1CCC1 (stereo not drawn) [Compound 47] | 95.3 |

###

Assay: Apparent pKa of LNP formulations (TNS fluorescence assay)
Conditions: LNP cationic lipid/DSPC/cholesterol/DMG-PEG 50/10/38.5/1.5 mol %, Table 2
measurement_name: Apparant Pka

| compound | result_value |
| --- | --- |
| CCCCCCCCC(CCCCCC)COC(=O)CCCCCN(CCCCCC(=O)OCC(CCCCCC)CCCCCCCC)CCN(CCCO)C1CCCCC1 (stereo not shown) | 6.01 |
| CCCCCCCCC(CCCCCC)COC(=O)CCCCCN(CCCCCC(=O)OCC(CCCCCC)CCCCCCCC)CCN(CCO)C1CCC1 (stereo not shown) | 6.40 |
| CCCCCCCCC(CCCCCC)COC(=O)CCCCCN(CCCCCC(=O)OCC(CCCCCC)CCCCCCCC)CCN(CCO)c1ccccc1 (stereo not shown) | 5.39 |
| CCCCCCCCC(CCCCCC)COC(=O)CCCCCN(CCCCCC(=O)OCC(CCCCCC)CCCCCCCC)CCN(C(=O)CCO)C1CCC1 (stereo not shown) | 5.84 |
| CCCCCCCCC(CCCCCC)COC(=O)CCCCCN(CCCCCC(=O)OCC(CCCCCC)CCCCCCCC)CCN(CCO)C1CCCC1 (stereo not shown) | 6.24 |
| CCCCCCCCC(CCCCCC)COC(=O)CCCCCN(CCCCCC(=O)OCC(CCCCCC)CCCCCCCC)CCN(C)CCO (stereo not shown) | 7.33 |
| CCCCCCCCC(CCCCCC)COC(=O)CCCCCN(CCCCCC(=O)OCC(CCCCCC)CCCCCCCC)CCNCCO (stereo not shown) | 6.96 |

###

Test: Encapsulation efficiency of lipid nanoparticles (Quant-it Ribogreen RNA quantification assay)
Type: physicochemical
Details: LNP encapsulating hEPO mRNA; Table 3
This section presents molecules with their documented Encapsulation Efficiency values.
measurement_name: Encapsulation Efficiency (%)

| molecule | reading_unit | result_value |
| --- | --- | --- |
| CCCCCCCCC(CCCCCC)CNC(=O)CCCCCN(CCCCCC(=O)NCC(CCCCCC)CCCCCCCC)CCN(CCO)C1CC1 (centres unmarked) [Compound 110] | % | 90.0 |
| CCCCCCCCC(CCCCCC)CC(=O)NCCCCCN(CCCCCOC(=O)CC(CCCCCC)CCCCCCCC)CCN(CCO)C1CCCCC1 (centres unmarked) | % | 80.00 |
| CCCCCCCCC(CCCCCC)COC(=O)NCCCCN(CCCCNC(=O)OCC(CCCCCC)CCCCCCCC)CCN(CCO)C1CCCCC1 (centres unmarked) | % | 96.9 |
| CCCCCCCCC(CCCCCC)CNC(=O)CCCCCN(CCCCCC(=O)OCC(CCCCCC)CCCCCCCC)CCN(CCO)C1CCC1 (centres unmarked) | % | 95.14 |
| CCCCCCCCC(CCCCCC)CC(=O)COCCCCN(CCCCCOC(=O)CC(CCCCCC)CCCCCCCC)CCN(CCO)C1CCCCC1 (centres unmarked) | % | 96.7 |
| CCCCCCCCC(CCCCCC)CNC(=O)CCCCCN(CCCCCC(=O)OCC(CCCCCC)CCCCCCCC)CCN(CCO)C1CC1 (centres unmarked) | % | 97.6 |
| CCCCCCCCC(CCCCCC)CC(=O)COCCCCN(CCCCCOC(=O)CC(CCCCCC)CCCCCCCC)CCN(CCO)C1CCCCCC1 (centres unmarked) | % | 96.7 |
| CCCCCCCCC(CCCCCC)CC(=O)OCCCCCN(CCCCCOC(=O)CC(CCCCCC)CCCCCCCC)CCN(CCO)C1CCC1 (centres unmarked) | % | 98.1 |
| CCCCCCCCC(CCCCCC)COC(=O)CCCCCN(CCCCCC(=O)OCC(CCCCCC)CCCCCCCC)CCN(CC(C)O)C1CCC1 (centres unmarked) | % | 94.3 |
| CCCCCCCCC(CCCCCC)COC(=O)CCCCCN(CCCCCC(=O)OCC(CCCCCC)CCCCCCCC)C(=O)CN(CCO)C1CCC1 (centres unmarked) | % | 90.9 |
| CCCCCCCCC(CCCCCC)COC(=O)CCCCCN(CCCCCC(=O)OCC(CCCCCC)CCCCCCCC)CCN(CC)C1CCC(O)CC1 (centres unmarked) | % | 96.7 |
| CCCCC/C=C\CCCC(CCC/C=C\CCCCC)COC(=O)CCCCCN(CCCCCC(=O)OCC(CCC/C=C\CCCCC)CCC/C=C\CCCCC)CCN(CCO)C1CCC1 | % | 80.0 |
| CCCCCCCCC(CCCCCC)COC(=O)CCCCCN(CCCCCC(=O)OCC(CCCCCC)CCCCCCCC)CCN(C1CCC1)C1CCC(O)CC1 (centres unmarked) | % | 98.3 |
| CCCCCCC(CCCCCC)CC(=O)NCCCCCN(CCCCCOC(=O)CC(CCCCCC)CCCCCC)CCN(CCO)C1CC1 | % | 85.5 |
| CCCCCCCCCCCOC(=O)CCCCCN(CCCCCC(=O)NCC(CCCCCCCC)CCCCCCCC)CCN(CCO)C1CCCCCC1 | % | 86.3 |
| CCCCCCCCC(CCCCCCCC)COC(=O)CCCCCN(CCCCCC(=O)OCC(CCCCCCCC)CCCCCCCC)CCN(CCC)C1CCCC1O (centres unmarked) | % | 80.1 |
| CCCCCCC(CCCCCC)COC(=O)CCCCCN(CCCCCC(=O)OCC(CCCCCC)CCCCCC)CCN(CCO)C1CCC1 [Compound 77] | % | 90.06 |
| CCCCCCCCC(CCCCCC)COC(=O)CCCCCN(CCCCCC(=O)OCC(CCCCCC)CCCCCCCC)CCN(CCO)C1CCC1 (centres unmarked) | % | 94.8 |
| CCCCCCCCCCCOC(=O)CCCCCN(CCCCCC(=O)OCC(CCCCCCCC)CCCCCCCC)CCN(CCO)C1CC1 | % | 85.2 |
| CCCCCCCCC(CCCCCC)COC(=O)CCCCCC(CCCCCC(=O)OCC(CCCCCC)CCCCCCCC)CCCN(C)CCO (centres unmarked) | % | 100.16 |
| CCCCCCCCC(CCCCCC)CNC(=O)CCCCCN(CCCCCC(=O)OCC(CCCCCC)CCCCCCCC)CCN(CCO)C1CCCCC1 (centres unmarked) | % | 98.70 |
| CCCCCCCCC(CCCCCC)COC(=O)CCCCCN(CCCCCC(=O)OCC(CCCCCC)CCCCCCCC)CCN(CCO)C1CCOCC1 (centres unmarked) | % | 94.6 |
| CCCCCCCCC(CCCCCCCC)CNC(=O)CCCCCN(CCCCCC(=O)OCC(CCCCCCCC)CCCCCCCC)CCN(CCO)C1CCCCCC1 | % | 92.64 |
| CCCCCCCCC(CCCCCC)C(CCC)OC(=O)CCCCCN(CCCCCC(=O)OC(CCC)C(CCCCCC)CCCCCCCC)CCN(CCO)C1CCC1 (centres unmarked) | % | 99.2 |
| CCCCCCCCC(CCCCCC)CNC(=O)CCCCCN(CCCCCC(=O)OCC(CCCCCC)CCCCCCCC)CCN(CCO)C1CCCC1 (centres unmarked) | % | 100.10 |
| CCCCCCCCC(CCCCCCCC)COC(=O)CCCCCN(CCCCCC(=O)OCC(CCCCCCCC)CCCCCCCC)CCN(C)C1CCC(O)CC1 (centres unmarked) | % | 93.1 |
